Target: Inosine-5'-monophosphate dehydrogenase 2 (Homo sapiens) (UniProt P12268)
Sequence (P12268 2-514 limits assumed): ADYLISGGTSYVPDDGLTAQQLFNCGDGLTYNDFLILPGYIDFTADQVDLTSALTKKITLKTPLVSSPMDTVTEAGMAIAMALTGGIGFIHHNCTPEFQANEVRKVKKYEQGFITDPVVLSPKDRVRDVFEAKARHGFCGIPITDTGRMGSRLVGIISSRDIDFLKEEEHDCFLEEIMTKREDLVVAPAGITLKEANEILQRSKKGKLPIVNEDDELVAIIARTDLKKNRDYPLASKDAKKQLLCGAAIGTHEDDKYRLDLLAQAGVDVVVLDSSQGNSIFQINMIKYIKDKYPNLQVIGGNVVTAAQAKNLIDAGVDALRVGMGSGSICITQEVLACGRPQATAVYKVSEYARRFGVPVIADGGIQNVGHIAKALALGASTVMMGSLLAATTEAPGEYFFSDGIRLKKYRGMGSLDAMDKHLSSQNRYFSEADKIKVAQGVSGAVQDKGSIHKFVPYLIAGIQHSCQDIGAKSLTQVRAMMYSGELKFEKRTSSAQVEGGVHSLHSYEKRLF
Test: Inhibitory binding constant was determined against human Inosine-5'-monophosphate dehydrogenase 2 (IMPDH type II) from slope of Michaelis-Menten plot
Measure: Kis (µM)
Quick note: give the figure in µM, leave out the unit.

Example entries and their recorded answers appear below.
>  <Smiles>
NC(=O)c1csc([C@@H]2O[C@H](COP(=O)(O)C(F)(F)P(=O)(O)OC[C@@H]3O[C@H](n4cnc5c(N)ncnc54)[C@@H](O)[C@H]3O)[C@@H](O)[C@H]2O)n1

>  <Kis, µM>
0.3

$$$$
>  <Smiles>
NC(=O)c1csc([C@@H]2O[C@H](COP(=O)(O)OP(=O)(O)OC[C@@H]3O[C@H](n4cnc5c(N)ncnc54)[C@H](F)[C@H]3O)[C@@H](O)[C@H]2O)n1

>  <Kis, µM>
13

$$$$
>  <Smiles>
NC(=O)c1csc([C@@H]2O[C@H](COP(=O)(O)OP(=O)(O)OC[C@@H]3O[C@H](n4cnc5c(N)ncnc54)[C@@H](O)[C@H]3F)[C@@H](O)[C@H]2O)n1

>  <Kis, µM>
1.5

$$$$
>  <Smiles>
NC(=O)c1csc([C@@H]2O[C@H](COP(=O)(O)OP(=O)(O)OC[C@@H]3O[C@H](n4cnc5c(N)ncnc54)[C@@H](F)[C@H]3O)[C@@H](O)[C@H]2O)n1

>  <Kis, µM>
6

$$$$

Moving on to the next molecule.
input: Any idea what its Kis is? The molecule is NC(=O)c1csc([C@H]2O[C@@H](COP(=O)(O)OP(=O)(O)OC[C@H]3O[C@@H](n4cnc5c(N)ncnc54)[C@H](O)[C@@H]3O)[C@H](O)[C@@H]2O)n1
output: 0.3
